From: ChEMBL document CHEMBL4312025

- Test system: Calf thymus DNA
- test: Binding affinity to calf thymus dsDNA assessed as ratio for fluorescence intensity of compound to fluorescence intensity for compound-polynucleotide complex in sodium cacodylate buffer at pH 7 by fluorescence spectroscopy based Scatchard method
- Format: nucleic-acid assay
- conditions: Bos taurus
Hi there, I'd appreciate the recorded Ratio for every entry that follows.
Give the figure only, with no unit attached.

Q. Supply Ratio value. Item: N#Cc1c(-n2cc(CCCCl)nn2)c2ccccc2n2c1nc1ccccc12
A. 0.3

Q. Quote Ratio reported for N#Cc1c(-n2cc(CCCCl)nn2)c2ccc(F)cc2n2c1nc1ccccc12 please.
A. 0.5

Q. Specify reported Ratio for the compound shown: N#Cc1c(-n2cc(CCCCl)nn2)c2ccc(-n3cc(CCCCl)nn3)cc2n2c1nc1ccccc12
A. 0.8

Q. Answer with the recorded Ratio of N#Cc1c(-n2cc(CCO)nn2)c2ccc(F)cc2n2c1nc1ccccc12 only.
A. 0.5

----------
- System: MCF7
- test: Growth inhibition of human MCF7 cells incubated for 72 hrs by MTT assay
- Type: functional
- conditions: MCF7, 72 h
Please respond with reported GI50 for every item in the list.
Provide the reading as a plain figure in µM.

Q. Specify GI50 for CCCCCCCCCCc1cn(-c2c(C#N)c3nc4ccccc4n3c3cc(F)ccc23)nn1 , system MCF7.
A. 5

Q. Look up MCF7 data: GI50 of CCCCCCCCCCc1cn(-c2c(C#N)c3nc4ccccc4n3c3ccccc23)nn1 , then report it.
A. 28.5

Q. # lookup: MCF7 GI50, key = N#Cc1c(-n2cc(CCO)nn2)c2ccc(F)cc2n2c1nc1ccccc12
A. 2

----------
- System: Calf thymus DNA
- test: Binding affinity to calf thymus dsDNA assessed as binding constant in sodium cacodylate buffer at pH 7 by fluorescence spectroscopy
- Format: nucleic-acid assay
- conditions: Bos taurus
Please respond with reported log Ks for every item in the list.
Enter a number only.

Q. Hello, please tell me recorded log Ks for this one: N#Cc1c(-n2cc(CCCCl)nn2)c2ccc(-n3cc(CCCCl)nn3)cc2n2c1nc1ccccc12
A. 5.4

Q. Provide only the value of recorded log Ks for N#Cc1c(-n2cc(CCO)nn2)c2ccc(F)cc2n2c1nc1ccccc12
A. 5

Q. Give me measured log Ks, please, for this compound: N#Cc1c(-n2cc(CCCCl)nn2)c2ccccc2n2c1nc1ccccc12
A. 6.1

Q. Return the recorded log Ks value; entry: N#Cc1c(-n2cc(CCCCl)nn2)c2ccc(F)cc2n2c1nc1ccccc12
A. 5.2

----------
- Test system: MCF7
- test: Growth inhibition of human MCF7 cells incubated for 72 hrs by MTT assay
- Format: functional
- conditions: MCF7, 72 h
measured-attribute: log10 of GI50 (log10 of the value in µM)
In plain terms, each number is the log10 of measured GI50 in µM.

Q. Identify measured log10 of GI50 corresponding to N#Cc1c(-n2cc(C3CC3)nn2)c2ccccc2n2c1nc1ccccc12
A. 0.48

Q. Report log10 of GI50 for N#Cc1c(-n2cc(C3CC3)nn2)c2ccc(-n3cc(C4CC4)nn3)cc2n2c1nc1ccccc12
A. 0.48

Q. Give the measured log10 of GI50 for N#Cc1c(-n2cc(CNS(=O)(=O)c3ccc(F)cc3)nn2)c2ccccc2n2c1nc1ccccc12
A. 0.62

Q. Write down log10 of GI50 measured for item N#Cc1c(-n2cc(-c3cc(C(F)(F)F)cc(C(F)(F)F)c3)nn2)c2ccc(F)cc2n2c1nc1ccccc12
A. 0.65

Q. Using the record for COc1cc([C@@H]2c3cc4c(cc3[C@@H](O[C@@H]3O[C@@H]5CO[C@@H](C)O[C@H]5[C@H](O)[C@H]3O)[C@H]3COC(=O)[C@H]23)OCO4)cc(OC)c1O [ETOPOSIDE] , state its measured log10 of GI50.
A. 0.00

Q. For the compound N#Cc1c(-n2cc(CNS(=O)(=O)c3ccc(F)cc3)nn2)c2ccc(F)cc2n2c1nc1ccccc12 , give its reported log10 of GI50.
A. 0.59

Q. Please report log10 of GI50 for the following compound: CCCCCc1ccc(-c2cn(-c3c(C#N)c4nc5ccccc5n4c4cc(F)ccc34)nn2)cc1
A. 1.38

Q. Query log10 of GI50 for N#Cc1c(-n2cc(CCO)nn2)c2ccc(-n3cc(CCO)nn3)cc2n2c1nc1ccccc12
A. 1.54

----------
- Test system: Poly(dA-dU)oligonucleotide
- test: Binding affinity to polyA-polyU dsRNA (unknown origin) assessed as decrease in emission intensity of the compound in sodium cacodylate buffer at pH 7 at 1X10'-6 mol/dm3 by fluorescence spectroscopy
- Format: nucleic-acid assay
Active and inactive are the calls of the source. The rule behind the calls is not given here.
measured-attribute: Activity

                            molecule_smiles  measured_attribute  experimental_value
0  N#Cc1c(-n2cc(CCO)nn2)c2ccc(F)cc2n2c1nc1ccccc12            Activity              Active
1  N#Cc1c(-n2cc(CCCCl)nn2)c2ccccc2n2c1nc1ccccc12            Activity              Active
2  N#Cc1c(-n2cc(CCCCl)nn2)c2ccc(-n3cc(CCCCl)nn3)cc2n2c1nc1ccccc12            Activity              Active
3  N#Cc1c(-n2cc(CCCCl)nn2)c2ccc(F)cc2n2c1nc1ccccc12            Activity              Active

----------
- System: Calf thymus DNA
- test: Binding affinity to calf thymus dsDNA assessed as stabilization of mixed DNA base pairs in sodium cacodylate buffer at pH 7 at compound:polynucleotide concentration ratio of 0.2 by thermal denaturation assay
- Format: nucleic-acid assay
- conditions: Bos taurus
Activity calls are given as the source filed them. No cut-off for these calls is given here.
Bench note: report the call from 1 for active, -1 for inactive

Q. # fetch the recorded call for N#Cc1c(-n2cc(CCCCl)nn2)c2ccc(-n3cc(CCCCl)nn3)cc2n2c1nc1ccccc12 here
A. 1

Q. Please let me know the test result on file for N#Cc1c(-n2cc(CCCCl)nn2)c2ccccc2n2c1nc1ccccc12 .
A. 1

Q. What did the test return for N#Cc1c(-n2cc(CCCCl)nn2)c2ccc(F)cc2n2c1nc1ccccc12 ?
A. -1

Q. Give the logged outcome of this assay for the following compound: N#Cc1c(-n2cc(CCO)nn2)c2ccc(F)cc2n2c1nc1ccccc12
A. 1

----------
- test: Solubility of the compound in 0.05 M sodium cacodylate buffer with <0.01% DMSO upto 1X10'-5 mol/dm3 by UV/Visible spectra analysis
- Assay type: physicochemical
measured-attribute: solubility

                            molecule_smiles  experimental_value
0  N#Cc1c(-n2cc(CCO)nn2)c2ccc(F)cc2n2c1nc1ccccc12             Soluble
1  N#Cc1c(-n2cc(CCCCl)nn2)c2ccc(-n3cc(CCCCl)nn3)cc2n2c1nc1ccccc12             Soluble
2  N#Cc1c(-n2cc(CCCCl)nn2)c2ccccc2n2c1nc1ccccc12             Soluble
3  N#Cc1c(-n2cc(CCCCl)nn2)c2ccc(F)cc2n2c1nc1ccccc12             Soluble

----------
Exercise: for every item that follows, state its recorded Ratio.
- System: Calf thymus DNA
- test: Binding affinity to calf thymus dsDNA assessed as ratio for bound compound to polynucleotide in sodium cacodylate buffer at pH 7 by fluorescence spectroscopy based Scatchard analysis
- Assay type: nucleic-acid assay
- conditions: Bos taurus
Please state the value as a number alone, without comment.

Q. Identify the reported Ratio for the following entry. N#Cc1c(-n2cc(CCCCl)nn2)c2ccc(-n3cc(CCCCl)nn3)cc2n2c1nc1ccccc12
A. 0.1

Q. Please report Ratio for the following compound: N#Cc1c(-n2cc(CCO)nn2)c2ccc(F)cc2n2c1nc1ccccc12
A. 0.08

Q. For the compound N#Cc1c(-n2cc(CCCCl)nn2)c2ccccc2n2c1nc1ccccc12 , give its reported Ratio.
A. 0.4

Q. Return Ratio (reported value) for this compound: N#Cc1c(-n2cc(CCCCl)nn2)c2ccc(F)cc2n2c1nc1ccccc12
A. 0.1

----------
- Test system: MCF7
- test: Growth inhibition of human MCF7 cells incubated for 72 hrs by MTT assay
- Type: functional
- conditions: MCF7, 72 h
Please go through the items and note down their GI50.
Lab book: enter the figure in µM, no units written.

Q. For the compound N#Cc1c(-n2cc(-c3cc(C(F)(F)F)cc(C(F)(F)F)c3)nn2)c2ccccc2n2c1nc1ccccc12 , give its reported GI50.
A. 4

Q. Name the recorded GI50 of the item N#Cc1c(-n2cc(CCCCl)nn2)c2ccc(F)cc2n2c1nc1ccccc12 in your answer.
A. 2

Q. Provide one value: measured GI50 of N#Cc1c(-n2cc(CCO)nn2)c2ccccc2n2c1nc1ccccc12
A. 4.2

Q. Respond only with GI50 recorded for CCCCCc1ccc(-c2cn(-c3ccc4c(-n5cc(-c6ccc(CCCCC)cc6)nn5)c(C#N)c5nc6ccccc6n5c4c3)nn2)cc1
A. 18

Q. Using known records, supply GI50 for N#Cc1c(-n2cc(CCCCl)nn2)c2ccccc2n2c1nc1ccccc12
A. 1.5

Q. Write down GI50 measured for item N#Cc1c(-n2cc(-c3ccc(Br)cc3)nn2)c2ccccc2n2c1nc1ccccc12
A. 31

Q. Quote GI50 reported for N#Cc1c(-n2cc(CCCCl)nn2)c2ccc(-n3cc(CCCCl)nn3)cc2n2c1nc1ccccc12 please.
A. 6.9

Q. Identify measured GI50 corresponding to CCCCCCCCCCc1cn(-c2ccc3c(-n4cc(CCCCCCCCCC)nn4)c(C#N)c4nc5ccccc5n4c3c2)nn1
A. 15

Q. Return reported GI50. Input compound: CCCCCc1ccc(-c2cn(-c3c(C#N)c4nc5ccccc5n4c4ccccc34)nn2)cc1
A. 35
